experiment: Clearance in rat at 1 mg/kg, iv; type: ADME, organism-based; set-up: dose 1 mg/kg, route intravenous; details: in vivo
PROPERTY_NAME: clearance (mL/min/kg)
All answers are understood in mL/min/kg, so give the number only.

Given item C=C(CN1CCCC1)c1ccc2c(c1)CCC[C@H]2NC(=O)C[C@@H](NS(=O)(=O)c1cccc(C(F)(F)F)c1)c1ccccc1 , the value recorded as its clearance is 30.6

Given item C=C(CNC(C)C)c1ccc2c(c1)CCC[C@H]2NC(=O)C[C@@H](NS(=O)(=O)c1cccc(C(F)(F)F)c1)c1ccccc1 , the value recorded as its clearance is 33.2

###

test: Metabolic stability in rat liver microsomes; type: ADME, Microsome; conditions: read-out: Stability
PROPERTY_NAME: microsomal CLint (µL/min/mg)
All answers are understood in µL/min/mg, so give the number only.

Given item C=C(CNC(C)C)c1ccc2c(c1)CCC[C@H]2NC(=O)C[C@@H](NS(=O)(=O)c1cccc(C(F)(F)F)c1)c1ccccc1 , the value recorded as its microsomal CLint is 240

Given item C=C(CN1CCCC1)c1ccc2c(c1)CCC[C@H]2NC(=O)C[C@@H](NS(=O)(=O)c1cccc(C(F)(F)F)c1)c1ccccc1 , the value recorded as its microsomal CLint is 282

###

experiment: Oral bioavailability in rat at 10 mg/kg; details: in vivo
Record form. Attribute: bioavailability. Fill in for each entry.
The reply must contain the numeric value and, after it, the unit.

Given item C=C(CNC(C)C)c1ccc2c(c1)CCC[C@H]2NC(=O)C[C@@H](NS(=O)(=O)c1cccc(C(F)(F)F)c1)c1ccccc1 , the value recorded as its bioavailability is 15%

Given item C=C(CN1CCCC1)c1ccc2c(c1)CCC[C@H]2NC(=O)C[C@@H](NS(=O)(=O)c1cccc(C(F)(F)F)c1)c1ccccc1 , the value recorded as its bioavailability is 10%

###

Record form. Attribute: Ki. Fill in for each entry.
Target sequence: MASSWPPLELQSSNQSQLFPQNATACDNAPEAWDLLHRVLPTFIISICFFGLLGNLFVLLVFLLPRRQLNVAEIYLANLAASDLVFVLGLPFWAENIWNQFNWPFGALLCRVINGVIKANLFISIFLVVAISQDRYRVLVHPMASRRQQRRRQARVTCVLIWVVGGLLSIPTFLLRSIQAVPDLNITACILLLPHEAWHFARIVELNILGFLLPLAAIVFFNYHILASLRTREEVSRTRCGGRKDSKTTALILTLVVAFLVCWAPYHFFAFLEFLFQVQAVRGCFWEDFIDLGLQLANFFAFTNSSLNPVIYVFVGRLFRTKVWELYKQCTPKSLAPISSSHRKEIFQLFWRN
All answers are understood in µM, so give the number only.

Given item O=C(C[C@@H](NS(=O)(=O)c1cccc(C(F)(F)F)c1)c1ccccc1)N[C@@H]1CCCc2cc(C3(CN4CCCCC4)CC3)ccc21 , the value recorded as its Ki is 0.014

Given item C=C(CNCC1CC1)c1ccc2c(c1)CCC[C@H]2NC(=O)C[C@@H](NS(=O)(=O)c1cccc(C(F)(F)F)c1)c1ccccc1 , the value recorded as its Ki is 0.016

Given item C=C(CN(C)C)c1ccc2c(c1)CCC[C@H]2NC(=O)C[C@@H](NS(=O)(=O)c1cccc(C(F)(F)F)c1)c1ccccc1 , the value recorded as its Ki is 0.078

Given item C=C(CN1CCC1)c1ccc2c(c1)CCC[C@H]2NC(=O)C[C@@H](NS(=O)(=O)c1cccc(C(F)(F)F)c1)c1ccccc1 , the value recorded as its Ki is 0.012

Given item C=C(CNC1CCC1)c1ccc2c(c1)CCC[C@H]2NC(=O)C[C@@H](NS(=O)(=O)c1cccc(C(F)(F)F)c1)c1ccccc1 , the value recorded as its Ki is 0.0034

Given item C=C(CNCCO)c1ccc2c(c1)CCC[C@H]2NC(=O)C[C@@H](NS(=O)(=O)c1cccc(C(F)(F)F)c1)c1ccccc1 , the value recorded as its Ki is 0.021

Given item C=C(CN1CCCCC1)c1ccc2c(c1)CCC[C@H]2NC(=O)C[C@@H](NS(=O)(=O)c1cccc(C(F)(F)F)c1)c1ccccc1 , the value recorded as its Ki is 0.0033
